test system: LXRb homodimer (NR concentration 270 nM); assay: PBM binding z-score (relative to random genomic background probes); higher = stronger binding; sequences stand for … in GC…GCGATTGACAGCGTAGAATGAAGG
experimental endpoint: PBM binding z-score
One number for each entry.

| sequence content | test system | experimental endpoint | val |
| --- | --- | --- | --- |
| CCAGACAGGTGAGAAGGTAACTCACCCTCGATTA | LXRb homodimer (NR concentration 270 nM) | PBM binding z-score | -0.394 |

Batch request: PBM binding z-score for each of the following sequences.
1. TCTCGGAGGACACGAAGGTCAGAGGTTTCCAGAG
2. CATCCAAGGTCAGAGAGGTCAGTGAATGCCGAGT
3. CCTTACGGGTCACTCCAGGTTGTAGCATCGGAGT
4. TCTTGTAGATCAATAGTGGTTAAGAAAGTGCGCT

result:
1. -0.91
2. 1.57
3. 0.0911
4. 0.297

State recorded PBM binding z-score for all listed sequences.
1. TATAGTTGGTCAAAGGTCACACACTCGAAATGCG
2. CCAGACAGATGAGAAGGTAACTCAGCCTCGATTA
3. AATACAGGGTCACTACGCCAGAGTAGGTACGAAT
4. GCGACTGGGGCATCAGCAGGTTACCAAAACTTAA
5. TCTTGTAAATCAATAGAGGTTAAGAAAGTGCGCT
6. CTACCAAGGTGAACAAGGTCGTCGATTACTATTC
7. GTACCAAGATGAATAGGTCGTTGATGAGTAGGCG

result:
1. 2.11
2. -0.206
3. 1.17
4. -0.676
5. 0.26
6. -0.568
7. -0.482
